# Assay System: GR (TAT induction in HepG2 cells) (Homo sapiens, UniProt P04150)
# Sequence (P04150 whole entry): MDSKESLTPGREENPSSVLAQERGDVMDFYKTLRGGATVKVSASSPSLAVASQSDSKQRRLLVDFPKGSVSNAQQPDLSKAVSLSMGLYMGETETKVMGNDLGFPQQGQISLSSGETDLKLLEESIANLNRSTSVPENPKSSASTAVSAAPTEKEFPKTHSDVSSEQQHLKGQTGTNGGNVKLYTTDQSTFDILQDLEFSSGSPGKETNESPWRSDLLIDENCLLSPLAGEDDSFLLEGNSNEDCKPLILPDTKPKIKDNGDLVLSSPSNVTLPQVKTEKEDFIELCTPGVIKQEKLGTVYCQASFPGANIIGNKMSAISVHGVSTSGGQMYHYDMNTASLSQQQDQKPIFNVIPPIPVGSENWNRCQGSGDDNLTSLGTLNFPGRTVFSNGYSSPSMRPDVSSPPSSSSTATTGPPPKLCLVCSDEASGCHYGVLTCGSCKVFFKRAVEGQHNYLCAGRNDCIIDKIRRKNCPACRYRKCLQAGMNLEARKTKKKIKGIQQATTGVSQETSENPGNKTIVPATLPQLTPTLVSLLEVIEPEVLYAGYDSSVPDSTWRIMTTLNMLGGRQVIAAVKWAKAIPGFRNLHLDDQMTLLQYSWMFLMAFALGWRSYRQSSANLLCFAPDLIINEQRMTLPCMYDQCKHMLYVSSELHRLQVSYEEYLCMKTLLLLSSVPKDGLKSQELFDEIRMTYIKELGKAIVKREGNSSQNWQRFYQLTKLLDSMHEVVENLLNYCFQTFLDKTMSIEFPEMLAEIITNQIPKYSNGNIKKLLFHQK
# Procedure Details: cell-based
# Condition Context: read-out: GR functional Ki
pKi: −log10 of the molar value.
Result Type: pKi

{"Mol": "COC[C@]12Cc3cnn(-c4ccc(F)cc4)c3C=C1CCN(S(=O)(=O)c1ccc(N3CCC[C@H]3C)cc1)C2", "Result": "< 7.00"}
{"Mol": "COC[C@]12Cc3cnn(-c4ccc(F)cc4)c3C=C1CCN(S(=O)(=O)c1ccc(N3CC[C@H](OC)C3)cc1)C2", "Result": "< 7.00"}
{"Mol": "COC[C@@H]1CCCN1c1ccc(S(=O)(=O)N2CCC3=Cc4c(cnn4-c4ccc(F)cc4)C[C@]3(COC)C2)cc1", "Result": "7.00 to 7.30"}
{"Mol": "COC[C@]12Cc3cnn(-c4ccc(F)cc4)c3C=C1CCN(S(=O)(=O)c1ccc(N3CCC(F)(F)C3)cc1)C2", "Result": "< 7.00"}
{"Mol": "COC[C@]12Cc3cnn(-c4ccc(F)cc4)c3C=C1CCN(S(=O)(=O)c1ccc(N3CCC(C)(C)C3)cc1)C2", "Result": "< 7.00"}
{"Mol": "COC[C@]12Cc3cnn(-c4ccc(F)cc4)c3C=C1CCN(S(=O)(=O)c1ccc(N3CCCCC3)cc1)C2", "Result": "7.00 to 7.30"}

###

# Assay System: human recombinant GR (Homo sapiens)
# Construct: purchased PanVera P2812
# Procedure Details: Human GR fluorescence polarisation (FP) binding assay (Example 23)
# Description: The following is a description of a FP assay for measuring compound inhibition of labelled glucocorticoid binding to the human recombinant GR. The binding affinity of test compounds was determined using a FP binding assay using human recombinant GR (PanVera P2812) and a fluorescent labelled glucocorticoid ligand (Fluorome GS Red) (PanVera P2894). The presence of inhibitors prevents the formation of a GS Red/GR complex resulting in a decrease in the measured polarisation value. […]

{"Mol": "COC[C@]12Cc3cnn(-c4ccc(F)cc4)c3C=C1CCN(S(=O)(=O)c1ccc(N3CCCCC3)cc1)C2", "Ki": "< 500 pM"}
{"Mol": "COC[C@]12Cc3cnn(-c4ccc(F)cc4)c3C=C1CCN(S(=O)(=O)c1ccc(N3CCC[C@H]3C)cc1)C2", "Ki": "< 500 pM"}
{"Mol": "COC[C@]12Cc3cnn(-c4ccc(F)cc4)c3C=C1CCN(S(=O)(=O)c1ccc(N3CCC(C)(C)C3)cc1)C2", "Ki": "< 500 pM"}
{"Mol": "COC[C@]12Cc3cnn(-c4ccc(F)cc4)c3C=C1CCN(S(=O)(=O)c1ccc(N3CCC(F)(F)C3)cc1)C2", "Ki": "< 500 pM"}
{"Mol": "COC[C@]12Cc3cnn(-c4ccc(F)cc4)c3C=C1CCN(S(=O)(=O)c1ccc(N3CC[C@H](OC)C3)cc1)C2", "Ki": "< 500 pM"}
{"Mol": "COC[C@@H]1CCCN1c1ccc(S(=O)(=O)N2CCC3=Cc4c(cnn4-c4ccc(F)cc4)C[C@]3(COC)C2)cc1", "Ki": "500 to 1000 pM"}

###

# Assay System: glucocorticoid receptors (GR) in SW1353/MMTV-5 cells (Homo sapiens, UniProt P04150)
# Construct: contains endogenous glucocorticoid receptors; endogenous in cells
# Procedure Details: GR reporter gene assay using SW1353/MMTV-5 cells (Example 24)
pKi: −log10 of the molar value.

{"Molecule": "O=S(=O)(c1ccc(N2CC[C@@H](F)C2)cc1)N1CCC2=Cc3c(cnn3-c3ccc(F)cc3)C[C@]2(COCC2CC2)C1 [Example 7]", "pKi": "> 8.00"}
{"Molecule": "O=S(=O)(c1cccc(N2CC[C@H](F)C2)c1)N1CCC2=Cc3c(cnn3-c3ccc(F)cc3)C[C@]2(COCC2CC2)C1 [Example 2]", "pKi": "> 8.00"}
{"Molecule": "CCOC(=O)[C@]12Cc3cnn(-c4ccc(F)cc4)c3C=C1CCN(S(=O)(=O)c1cccc(N3CC[C@@H](F)C3)c1)C2 [Example 11]", "pKi": "7.70 to 8.00"}

Values from patent US20130225633A1
